pIC50: −log10 of the molar value.
Target or system USP7 (Homo sapiens, UniProt Q93009); recorded quantity pIC50.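 Further: fluorescence intensity readout of USP7 enzymatic activity, reaction incubated 90 min at room temperature.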

See these solved cases before continuing.
>  <molecule>
CC1(c2cnn(Cc3cc4nccc(-c5cc(Cl)cc6c5N([C@@H]5CN[C@@H](CO)C5)CCC6)c4s3)c(=O)c2)CC1

>  <pIC50>
> 8.00

$$$$
>  <molecule>
CN1C(=O)N(Cc2cc3nccc(-c4cc(Cl)cc5c4N(C4CNC4)CCC5)c3s2)C(=O)C12CCC2

>  <pIC50>
6.00 to 7.00

$$$$
>  <molecule>
O=C1CCC(=O)N1Cc1cc2nccc(-c3cc(Cl)cc4c3N(C3CCNC3)C[C@@H]3C[C@H]43)c2s1 (single isomer, unassigned) [Example 113c]

>  <pIC50>
7.00 to 8.00

$$$$
>  <molecule>
CC1(C)C[C@H](N2CCOc3cc(C#N)cc(-c4ccnc5cc(Cn6ncc(C(C)(C)C)cc6=O)sc45)c32)CN1

>  <pIC50>
> 8.00

$$$$
>  <molecule>
Cc1ccnn(Cc2cc3nccc(-c4cc(C(F)(F)F)cc5c4N(C4CNC6(CCC6)C4)CCO5)c3s2)c1=O (single isomer, unassigned) [Example 176a]

>  <pIC50>
6.00 to 7.00

$$$$
>  <molecule>
O=C1COC(=O)N1Cc1cc2nccc(-c3cc(Cl)cc4c3N([C@H]3CCNC3)CCC4)c2s1

>  <pIC50>
> 8.00

$$$$
>  <molecule>
O=c1ccn(CCC(F)F)c(=O)n1Cc1cc2nccc(-c3cc(Cl)cc4c3N([C@H]3CCNC3)CCC4)c2s1

>  <pIC50>
> 8.00

$$$$
>  <molecule>
O=C1CCC(=O)N1Cc1sc2c(-c3cc(Cl)cc4c3N(C3CCNC3)CCC4)ccnc2c1F (single isomer, unassigned) [Example 108b]

>  <pIC50>
7.00 to 8.00

$$$$

INPUT: Notebook: pull reported pIC50 for USP7 (Homo sapiens, UniProt Q93009), entry O=C1CCC(=O)N1Cc1cc2nccc(-c3cc(Cl)cc4c3N(C3CNC5(CCC5)C3)C(=O)CO4)c2s1 (single isomer, unassigned) [Example 173b]
OUTPUT: 6.00 to 7.00
